target: p110δ/p85α (Homo sapiens (Human), UniProt O00329); test: PI 3-Kinase (human) HTRF assay, p110δ/p85α; type: biochemical; conditions: read-out: PI3K δ IC50
Sequence (O00329 whole entry): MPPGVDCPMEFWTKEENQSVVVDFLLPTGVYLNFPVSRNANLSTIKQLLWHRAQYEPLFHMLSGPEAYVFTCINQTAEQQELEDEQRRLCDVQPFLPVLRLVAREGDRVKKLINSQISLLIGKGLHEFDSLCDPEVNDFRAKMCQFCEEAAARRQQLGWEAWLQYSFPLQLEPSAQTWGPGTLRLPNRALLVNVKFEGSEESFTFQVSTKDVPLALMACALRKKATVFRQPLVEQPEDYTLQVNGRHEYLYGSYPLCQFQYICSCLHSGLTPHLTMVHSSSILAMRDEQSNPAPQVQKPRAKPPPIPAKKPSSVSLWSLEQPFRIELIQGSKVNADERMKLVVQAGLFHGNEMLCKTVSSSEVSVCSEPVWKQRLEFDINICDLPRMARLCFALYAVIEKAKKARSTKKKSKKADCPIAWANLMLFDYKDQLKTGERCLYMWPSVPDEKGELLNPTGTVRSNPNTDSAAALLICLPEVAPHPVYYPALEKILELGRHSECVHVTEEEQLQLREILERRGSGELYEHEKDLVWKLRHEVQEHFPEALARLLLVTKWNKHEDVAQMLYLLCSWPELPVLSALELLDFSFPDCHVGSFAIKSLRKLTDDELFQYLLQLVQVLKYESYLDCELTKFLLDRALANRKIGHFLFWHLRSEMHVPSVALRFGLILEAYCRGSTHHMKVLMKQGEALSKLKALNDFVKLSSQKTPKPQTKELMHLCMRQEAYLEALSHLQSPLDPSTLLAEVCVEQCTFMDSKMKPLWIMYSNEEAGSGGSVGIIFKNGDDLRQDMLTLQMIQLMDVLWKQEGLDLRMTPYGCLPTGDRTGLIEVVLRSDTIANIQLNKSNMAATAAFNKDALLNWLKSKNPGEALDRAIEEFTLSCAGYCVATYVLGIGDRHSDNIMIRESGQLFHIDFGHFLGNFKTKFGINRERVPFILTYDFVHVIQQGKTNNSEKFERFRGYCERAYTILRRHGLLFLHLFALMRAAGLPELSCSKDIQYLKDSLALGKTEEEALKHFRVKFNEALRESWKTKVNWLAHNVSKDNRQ
Sequence (P27986 whole entry partner): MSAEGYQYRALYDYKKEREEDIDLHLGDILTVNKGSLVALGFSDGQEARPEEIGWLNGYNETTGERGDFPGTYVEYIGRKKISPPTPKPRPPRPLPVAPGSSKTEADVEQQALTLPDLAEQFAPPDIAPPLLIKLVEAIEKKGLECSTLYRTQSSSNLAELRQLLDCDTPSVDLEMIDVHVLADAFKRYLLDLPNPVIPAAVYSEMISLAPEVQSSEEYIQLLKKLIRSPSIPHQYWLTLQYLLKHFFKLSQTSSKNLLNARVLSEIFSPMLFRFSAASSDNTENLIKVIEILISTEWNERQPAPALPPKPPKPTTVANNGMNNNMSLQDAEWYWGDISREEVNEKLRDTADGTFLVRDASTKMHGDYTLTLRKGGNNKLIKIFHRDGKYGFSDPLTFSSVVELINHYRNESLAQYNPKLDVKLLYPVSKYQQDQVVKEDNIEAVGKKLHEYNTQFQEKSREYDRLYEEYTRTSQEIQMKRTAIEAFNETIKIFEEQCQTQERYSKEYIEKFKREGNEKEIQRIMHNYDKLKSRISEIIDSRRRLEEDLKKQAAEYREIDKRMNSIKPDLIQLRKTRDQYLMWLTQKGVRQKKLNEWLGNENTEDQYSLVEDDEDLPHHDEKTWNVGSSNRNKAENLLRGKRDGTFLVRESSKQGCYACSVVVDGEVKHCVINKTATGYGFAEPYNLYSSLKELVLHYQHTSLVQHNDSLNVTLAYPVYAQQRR
pIC50: −log10 of the molar value.
OBSERVATION_TYPE: pIC50

Some entries whose results are on file:
{"SMILES_STR": "Nc1nc2cc(-c3ccc4nccc(N5CCOCC5)c4c3)ccc2o1", "ASSAYED_TARGET": "p110δ/p85α (Homo sapiens (Human), UniProt O00329)", "pIC50": "> 6.00"}
{"SMILES_STR": "Nc1nc2cccc(-c3ccc4nccc(-c5ccncc5)c4c3)c2s1", "ASSAYED_TARGET": "p110δ/p85α (Homo sapiens (Human), UniProt O00329)", "pIC50": "> 6.00"}
{"SMILES_STR": "Nc1nc2cc(-c3ccc4nccc(-c5cccnc5)c4c3)ccc2o1", "ASSAYED_TARGET": "p110δ/p85α (Homo sapiens (Human), UniProt O00329)", "pIC50": "> 7.00"}
{"SMILES_STR": "N#Cc1cnc2ccc(-c3ccc4oc(N)nc4c3)cc2c1-c1ccncc1", "ASSAYED_TARGET": "p110δ/p85α (Homo sapiens (Human), UniProt O00329)", "pIC50": "> 7.00"}

Q) For the compound CS(=O)(=O)N1CCN(Cc2cc3nc(-c4ccc5oc(N)nc5c4)nc(N4CCOCC4)c3s2)CC1 , report pIC50.
A) > 6.00

Q) For the compound Nc1nc2cc(-c3ccc4ncc(N[C@H]5CC[C@H](O)CC5)nc4c3)ccc2o1 , report pIC50.
A) > 7.00

----------
Reported pIC50 values for a set of molecules
molecular target: p110α/p85α (Homo sapiens (Human), UniProt P42336); assay: PI 3-Kinase (human) HTRF assay, p110α/p85α; format: biochemical; conditions: read-out: PI3K α IC50
Sequence (P42336 whole entry): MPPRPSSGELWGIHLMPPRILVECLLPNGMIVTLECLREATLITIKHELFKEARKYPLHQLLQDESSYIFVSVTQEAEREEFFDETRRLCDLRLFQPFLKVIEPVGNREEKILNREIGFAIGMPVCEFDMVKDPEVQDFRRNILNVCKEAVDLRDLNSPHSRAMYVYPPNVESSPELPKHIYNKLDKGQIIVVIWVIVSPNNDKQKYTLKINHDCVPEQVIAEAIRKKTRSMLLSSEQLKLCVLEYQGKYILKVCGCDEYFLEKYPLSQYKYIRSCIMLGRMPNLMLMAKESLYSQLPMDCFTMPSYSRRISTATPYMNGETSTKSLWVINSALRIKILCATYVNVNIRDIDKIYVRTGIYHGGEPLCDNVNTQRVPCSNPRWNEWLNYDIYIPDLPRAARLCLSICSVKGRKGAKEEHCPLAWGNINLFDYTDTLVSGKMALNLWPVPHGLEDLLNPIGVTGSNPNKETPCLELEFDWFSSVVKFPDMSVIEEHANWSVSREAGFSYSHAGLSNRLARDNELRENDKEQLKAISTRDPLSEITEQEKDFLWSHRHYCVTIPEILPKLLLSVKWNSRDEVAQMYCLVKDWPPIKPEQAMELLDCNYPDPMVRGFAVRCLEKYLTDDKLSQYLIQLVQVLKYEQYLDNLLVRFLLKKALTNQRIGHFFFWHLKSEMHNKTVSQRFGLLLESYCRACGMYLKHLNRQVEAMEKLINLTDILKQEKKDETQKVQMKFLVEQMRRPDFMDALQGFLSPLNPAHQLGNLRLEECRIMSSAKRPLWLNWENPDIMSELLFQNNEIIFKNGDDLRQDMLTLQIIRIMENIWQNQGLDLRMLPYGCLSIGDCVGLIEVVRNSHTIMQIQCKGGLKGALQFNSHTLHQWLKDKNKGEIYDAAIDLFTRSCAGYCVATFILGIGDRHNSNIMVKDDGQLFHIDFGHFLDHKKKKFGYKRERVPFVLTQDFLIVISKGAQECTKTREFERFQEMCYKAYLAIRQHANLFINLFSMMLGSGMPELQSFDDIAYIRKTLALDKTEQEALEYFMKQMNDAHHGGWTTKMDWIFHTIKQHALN
Sequence (P27986 whole entry partner): as the sequence (P27986 whole entry partner) above
pIC50: −log10 of the molar value.

Some entries whose results are on file:
{"SMILES_STR": "Nc1nc2cc(-c3ccc4ncn(C5CCOCC5)c4c3)ccc2o1", "VALUE_REPORTED": "> 5.00"}
{"SMILES_STR": "CC(=O)N1CCN(c2cnc3ccc(-c4ccc5oc(N)nc5c4)cc3n2)CC1", "VALUE_REPORTED": "> 7.00"}
{"SMILES_STR": "Cc1ncccc1-c1cnc2ccc(-c3ccc4oc(N)nc4c3)cc2n1", "VALUE_REPORTED": "> 6.00"}
{"SMILES_STR": "Nc1nc2cc(-c3ccc4ncc(-c5cn[nH]c5)n4n3)ccc2o1", "VALUE_REPORTED": "> 7.00"}

Switching to the query record.
Q) For the molecule Nc1nc2cccc(-c3ccc4nccc(-c5ccncc5)c4c3)c2s1 , report pIC50.
A) > 7.00

----------
Reported IC50 values for a set of molecules
target: UniProtKB P48736; test: PI 3-Kinase (human) HTRF assay, p110γ; format: biochemical; details: read-out: PI3K γ In Vitro IC50
Sequence (P48736 whole entry): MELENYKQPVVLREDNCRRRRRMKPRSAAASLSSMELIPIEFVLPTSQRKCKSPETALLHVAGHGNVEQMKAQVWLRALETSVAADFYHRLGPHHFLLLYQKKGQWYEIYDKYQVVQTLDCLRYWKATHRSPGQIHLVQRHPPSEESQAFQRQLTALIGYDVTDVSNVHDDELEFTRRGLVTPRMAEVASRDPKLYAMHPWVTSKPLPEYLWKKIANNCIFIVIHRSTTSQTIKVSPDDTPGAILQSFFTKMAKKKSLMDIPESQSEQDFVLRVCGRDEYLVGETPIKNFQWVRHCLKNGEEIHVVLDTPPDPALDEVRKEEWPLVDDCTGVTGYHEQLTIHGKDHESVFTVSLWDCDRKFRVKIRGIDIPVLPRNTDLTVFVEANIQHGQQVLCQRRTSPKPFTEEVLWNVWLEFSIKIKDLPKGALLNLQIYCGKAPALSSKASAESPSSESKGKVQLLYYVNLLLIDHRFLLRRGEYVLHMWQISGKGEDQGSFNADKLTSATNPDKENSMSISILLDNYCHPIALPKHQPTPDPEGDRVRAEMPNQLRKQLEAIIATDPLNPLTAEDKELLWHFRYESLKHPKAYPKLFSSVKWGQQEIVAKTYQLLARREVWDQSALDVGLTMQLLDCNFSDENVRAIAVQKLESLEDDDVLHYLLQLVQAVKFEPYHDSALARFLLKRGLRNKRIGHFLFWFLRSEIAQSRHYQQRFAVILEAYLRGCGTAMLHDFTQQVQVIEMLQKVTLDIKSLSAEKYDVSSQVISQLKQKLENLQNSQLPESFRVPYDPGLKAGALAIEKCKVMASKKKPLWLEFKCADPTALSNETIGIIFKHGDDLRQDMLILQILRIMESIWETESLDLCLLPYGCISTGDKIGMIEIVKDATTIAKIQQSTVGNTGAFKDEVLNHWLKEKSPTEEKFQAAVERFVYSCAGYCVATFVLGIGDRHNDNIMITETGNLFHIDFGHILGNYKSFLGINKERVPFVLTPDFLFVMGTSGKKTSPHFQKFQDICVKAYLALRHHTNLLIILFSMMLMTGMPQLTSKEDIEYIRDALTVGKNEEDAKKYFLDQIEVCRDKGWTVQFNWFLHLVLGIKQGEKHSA

{"SMILES_STR": "CO[C@@H]1CCN(C(=O)c2cnc3ccc(-c4ccc5oc(N)nc5c4)cn23)C1", "IC50": "< 1000 nM"}
{"SMILES_STR": "Cc1cc(-c2ccc3oc(N)nc3c2)cc2c(-c3ccncc3)cnn12", "IC50": "< 100 nM"}
{"SMILES_STR": "Nc1nc2cc(-c3ccc4ncc(C(=O)N5CC(N6CC[C@H](O)C6)C5)n4c3)ccc2o1", "IC50": "< 1000 nM"}

Switching to the query record.
Q) For the molecule Nc1nc2cc(-c3ccc4ncc(C(=O)N5CCOCC5)n4c3)cnc2o1 , report IC50.
A) < 10000 nM

----------
molecular target: p110α/p85α (Homo sapiens (Human), UniProt P42336); assay: PI 3-Kinase (human) HTRF assay, p110α/p85α; type: biochemical; conditions: in vitro; read-out: PI3K α IC50
pIC50: −log10 of the molar value.
Reported pIC50 values for a set of compounds

Some entries whose results are on file:
{"SMILES_STR": "Nc1nc2ccc(-c3ccc4nc(N)sc4c3)cc2o1", "pIC50": "> 6.00"}
{"SMILES_STR": "NC(=O)[C@@H]1CCCN1C(=O)C1CN(c2cnc3ccc(-c4ccc5oc(N)nc5c4)cc3n2)C1", "pIC50": "> 7.00"}
{"SMILES_STR": "Nc1nc2cc(-c3ccc4ncc(N5CC(N6CCOCC6)C5)nc4c3)cc(F)c2o1", "pIC50": "> 7.00"}
{"SMILES_STR": "CN1CCN(CCNC(=O)c2cnc3ccc(-c4ccc5oc(N)nc5c4)cn23)CC1", "pIC50": "> 7.00"}
{"SMILES_STR": "Nc1nc2cc(-c3ccc4oc(N)nc4c3)ccc2o1", "pIC50": "> 6.00"}
{"SMILES_STR": "Cc1cc(-c2ccc3oc(N)nc3c2)cc2c(C(=O)N3CCOCC3)cnn12", "pIC50": "> 6.00"}
{"SMILES_STR": "CN1CCN(C(=O)c2cnn3ccc(-c4ccc5oc(N)nc5c4)cc23)CC1", "pIC50": "> 6.00"}

Switching to the query record.
Q) Write pIC50 of Nc1nc2cc(-c3ccc4ncc(N5CC[C@H](N6CCOCC6)C5)nc4c3)ccc2o1 ; system used: p110α/p85α (Homo sapiens (Human), UniProt P42336)
A) > 6.00

----------
test system: Human tumor cell lines (e.g., MCF7, U-87 MG, MDA-MB-468, PC-3); assay: Tumor cell line proliferation assay (Alamar Blue); assay type: cell-based; settings: PC3 cells, read-out: PC3 proliferation (nM)*
Reported IC50 values for a set of compounds

{"SMILES_STR": "Nc1nc2cc(-c3ccc4ncc(-c5ccncc5)n4n3)ccc2o1", "IC50": "< 1000 nM"}
{"SMILES_STR": "Nc1nc2ccc(-c3ccc4nccc(-c5ccncc5)c4c3)cc2o1", "IC50": "< 100 nM"}
{"SMILES_STR": "Nc1nc2cc(-c3ccc4ncc(-c5ccncc5)n4c3)ccc2o1", "IC50": "< 10000 nM"}
{"SMILES_STR": "CS(=O)(=O)N1CCN(Cc2cc3nc(-c4ccc5oc(N)nc5c4)nc(N4CCOCC4)c3s2)CC1", "IC50": "< 1000 nM"}
{"SMILES_STR": "Cn1c(=O)n(-c2ccc(C(C)(C)C#N)cc2)c2c3cc(-c4ccc5oc(N)nc5c4)ccc3ncc21", "IC50": "< 100 nM"}

Q) For the compound CN1CCC(N(C)C(=O)c2cnc3ccc(-c4ccc5oc(N)nc5c4)cn23)CC1 , report IC50.
A) < 1000 nM

Q) For the compound CC(=O)Nc1nc2ccc(-c3ccc4nccc(-c5ccncc5)c4c3)cc2s1 , report IC50.
A) < 10000 nM

----------
target: p110β/p85α (Homo sapiens (Human)); experiment: PI 3-Kinase (human) HTRF assay, p110β/p85α; format: biochemical; conditions: read-out: PI3K β In Vitro IC50
Sequence (P42338 whole entry): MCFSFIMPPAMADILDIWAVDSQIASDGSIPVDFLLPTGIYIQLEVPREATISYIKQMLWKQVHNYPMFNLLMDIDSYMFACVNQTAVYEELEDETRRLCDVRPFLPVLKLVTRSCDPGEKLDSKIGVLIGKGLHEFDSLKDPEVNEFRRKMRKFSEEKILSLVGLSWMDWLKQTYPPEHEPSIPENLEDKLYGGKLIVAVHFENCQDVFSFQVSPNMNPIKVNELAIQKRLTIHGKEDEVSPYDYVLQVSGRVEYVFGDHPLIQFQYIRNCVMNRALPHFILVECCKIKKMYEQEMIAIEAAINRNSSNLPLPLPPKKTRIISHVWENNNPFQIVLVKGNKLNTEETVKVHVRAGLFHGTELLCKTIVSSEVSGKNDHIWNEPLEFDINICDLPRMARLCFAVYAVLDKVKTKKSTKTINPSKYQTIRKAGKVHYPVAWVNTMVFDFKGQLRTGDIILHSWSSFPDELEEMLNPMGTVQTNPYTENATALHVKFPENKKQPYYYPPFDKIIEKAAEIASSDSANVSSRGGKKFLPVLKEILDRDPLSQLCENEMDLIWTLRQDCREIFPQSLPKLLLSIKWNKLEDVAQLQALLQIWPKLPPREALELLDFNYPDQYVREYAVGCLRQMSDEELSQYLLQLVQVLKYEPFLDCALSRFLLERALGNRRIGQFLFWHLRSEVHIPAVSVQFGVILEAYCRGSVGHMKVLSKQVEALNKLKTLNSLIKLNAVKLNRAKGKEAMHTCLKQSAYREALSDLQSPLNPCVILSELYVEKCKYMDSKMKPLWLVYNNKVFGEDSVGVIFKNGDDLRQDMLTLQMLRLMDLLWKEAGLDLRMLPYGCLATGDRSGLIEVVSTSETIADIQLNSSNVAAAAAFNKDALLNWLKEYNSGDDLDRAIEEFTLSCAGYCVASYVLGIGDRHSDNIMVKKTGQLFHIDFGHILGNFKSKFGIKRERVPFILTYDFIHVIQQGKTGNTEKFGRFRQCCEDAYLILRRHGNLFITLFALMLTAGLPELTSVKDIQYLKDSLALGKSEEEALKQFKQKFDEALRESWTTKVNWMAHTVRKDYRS
Sequence (P27986 whole entry partner): as the sequence (P27986 whole entry partner) above
pIC50: −log10 of the molar value.
OBSERVATION_TYPE: pIC50

Some entries whose results are on file:
{"SMILES_STR": "COc1ccc(-c2ccc3ncc(C(=O)N4CCOCC4)n3c2)cc1NS(=O)(=O)c1cccnc1", "OBSERVATION_TYPE": "pIC50", "VALUE_REPORTED": "> 7.00"}
{"SMILES_STR": "COc1ncc(-c2ccc3ncc(C(=O)N4CCOCC4)n3c2)cc1NS(=O)(=O)c1ccc(F)cc1", "OBSERVATION_TYPE": "pIC50", "VALUE_REPORTED": "> 6.00"}
{"SMILES_STR": "Cc1cc(-c2ccc3nc(N)oc3c2)cn2c(C(=O)N3CCOCC3)cnc12", "OBSERVATION_TYPE": "pIC50", "VALUE_REPORTED": "> 6.00"}

Switching to the query record.
Q) For the molecule COc1ncc(-c2ccc3ncn(C4CCN(C(C)C)CC4)c(=O)c3c2)cc1NS(=O)(=O)c1ccccc1 , report pIC50.
A) > 7.00

----------
molecular target: p110β/p85α (Homo sapiens (Human)); assay: PI 3-Kinase (human) HTRF assay, p110β/p85α; assay type: biochemical; conditions: in vitro; read-out: PI3K β IC50
pIC50: −log10 of the molar value.
OBSERVATION_TYPE: pIC50

Some entries whose results are on file:
{"COMPOUND": "Nc1nc2cc(-c3ccc4ncc(C(=O)N5CCC5)n4c3)ccc2o1", "VALUE_REPORTED": "> 5.00"}
{"COMPOUND": "CN(C)CC(=O)N1CCN(c2cnc3ccc(-c4ccc5oc(N)nc5c4)cc3n2)CC1", "VALUE_REPORTED": "> 6.00"}
{"COMPOUND": "CN1CCN(C2CCN(c3cnc4ccc(-c5ccc6oc(N)nc6c5)cc4n3)CC2)CC1", "VALUE_REPORTED": "> 6.00"}
{"COMPOUND": "Cc1c(-c2ccc3oc(N)nc3c2)ccc2ncc(N3CCN[C@@H](C)C3)nc12", "VALUE_REPORTED": "> 7.00"}
{"COMPOUND": "Nc1nc2cc(-c3ccc4ncc(N5CCC(n6ccnc6)CC5)nc4c3)ccc2o1", "VALUE_REPORTED": "> 6.00"}

Q) For the compound Nc1nc2cc(-c3ccc4ncn(CCCN5CCCC5)c(=O)c4c3)ccc2o1 , report pIC50.
A) > 5.00

Q) For the compound Nc1nc2cc(-c3ccc4ncc(C(=O)N5CCOCC5)n4c3)c(F)cc2o1 , report pIC50.
A) > 5.00

These data points were gathered from patent US11547697B2.
